- study_system: KPC-2 (Klebsiella pneumoniae)
- Sequence (Q9F663 25-293, looked up): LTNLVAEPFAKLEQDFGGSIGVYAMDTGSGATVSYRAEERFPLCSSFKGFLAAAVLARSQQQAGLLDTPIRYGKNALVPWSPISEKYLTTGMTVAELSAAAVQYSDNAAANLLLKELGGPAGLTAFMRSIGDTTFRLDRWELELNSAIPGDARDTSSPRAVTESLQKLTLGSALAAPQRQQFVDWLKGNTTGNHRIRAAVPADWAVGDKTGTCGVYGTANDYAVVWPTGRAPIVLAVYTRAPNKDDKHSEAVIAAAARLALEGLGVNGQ
- test_description: nitrocefin hydrolysis at […] nm, […] min pre-incubation
- Format: biochemical
reported_property: pIC50
// scale note: pIC50 = -log10(conc_M); give the bare number

Recorded pIC50 for O=C(O)[C@H]1/C(=C/CO)O[C@@H]2CC(=O)N21 [clavulanate] , please?
5.19

###

- study_system: UniProt:Q9F663
- test_description: nitrocefin hydrolysis at […] nm, […] min pre-incubation
- Assay type: biochemical
reported_property: pIC50
Conceptually, pIC50 converts a concentration in mol/L into minus its log10.

Notebook: pull reported pIC50 for UniProt:Q9F663, entry `C[C@]1(Cn2ccnn2)[C@H](C(=O)O)N2C(=O)C[C@H]2S1(=O)=O`
5.04
